In this section we review reported apparent KD of MS2 coat protein values for a set of sequences.
Tested on: MS2 coat protein
Test: apparent KD of MS2 coat protein; higher = weaker reporter binding
Conditions: Eterna round: R107; input ligand: none
result_type: apparent KD of MS2 coat protein (µM)

sequence_input	units	recorded_result
AAUGUAUGGCACAUGAGGAUCACCCAUGUGCGAGGACCGGUACGGCCGCCACUCGGUCCUGGGUUCUUAUUACUAUACAUUAAUG [XTryp A #15]	µM	0.011
UGUAUGGACUGAAGGAGCGGGUUGAUAACCUGAGGAUCAUCCAGGUAAAAGGCGAAAGCCGCCCAGGUAGGUCGCAGUCCAUACU	µM	0.158
ACAUGAAUAUCAUCUAUUUAUUGUACUGAAGGAGCGUCCAUGAGGACAGGUAGGUCGCAGUGUAAAACAUGAGGAUCACCCAUGU [Same State - Arginine A #1]	µM	0.0222
GGGCAAGAGGGAAGGAGCGUUAGCUGAGUCACAUGAGGAUCACCCAUGUCGCACAUAGUAUGACAGGUAGGUCGCCCUCUACCCU [SS-ArgB14]	µM	0.0156
GCAUCCUAGUCGGCCGCCACUGCAGGAUCGGCGGCAGAUCCUCAACAUGAGGAUCACCCAUGUAGCAGGACCGGGACUAGGAUGC [(Trp1)-(TM)''-(TM)'-(Ms2)-(Trp2)_Design2]	µM	0.0916
UCUAGUGCGGGAAGGAGCGCCAUACAUGAGGAUCACCCAUGUUGAGCAUGCUCGUGUACUAGGCAGGUAGGUCGCCCGCUCUACG [Radionle]	µM	0.0272
GCGAUGGAGCGAAGGAGCGUGCUGGUACAUGAGGAUCACCCAUGUGAGUCGCAUCGCUAAGCACAGGUAGGUCGCGCUCCAUCGC [EAB NP+V+V2 #10]	µM	0.0584
UUUACAUGAGGAUCACCCAUGUGCCAUGAUACCAGACAUGAAAAUGUCCCUUGGCAGCAUGAGUGAUAUGCGUCGGAAACGACGC [Jundrov]	µM	0.153
GGCGCGAGCCAACAUGAGGAUCACCCAUGUCGAGGACCGGUACGGCCGCCACUCGAACGAGUGGCGCGCGCGCGCGCGCGCGCGC [Vaa]	µM	0.0159
ACAUGAGGAUCACCCAUGUACUGGAUCUAACGAGGACCGGUACGGCCGCCACUCGAAGAUAGGACUAUGGAAACAUAGCUUAUCA [Design 1]	µM	0.0153
ACAUGAGGAUCACCCAUGUUUGUUGUUCCUCGAGGACCGGUACGGCCGCCACUCGAACGAGUGGCGCGCGCGCGCGCGCGCGCGC [aMa]	µM	0.0133
UCGCCCAGGAUGGAAUCCUGGGAUAUGGAAGGAGCGCUGAUGCCAGCAGGUAGGUCGCCAACGGACAUGAGGAUCACCCAUGUAC [Same State - Arginine A (Freestyle 9)]	µM	0.0191
GUAUAAAGAAAACUUUAUACAGUGGGUGAACGAGGACCGGUACGGCCGCCACUCGGACAUGAGGAUCACCCAUGUCCAUGUGAAA [AstrosExyTryA#9]	µM	0.0143
GUCAGUGACUGAAGGAGCGACAUGAGGAUCACCCAUGUCUCCCGUUAUGGGAGUUCCUUAGGUCAGGUAGGUCGCAGUCACUGAC [#1 Exclusion - Arginine B Attempt #29 (Inspired by Omei)]	µM	0.123
AUGUCGUUGAAUAUAGCGGCUUGGUGUGAUACCAGAAUGAUCUAAUUCCCUUGGCAGCAUUACAUGAGGAUCACCCAUGUUCCAG [SSTheo A #21]	µM	0.0391
AAUAAUAACUGAAGGAGCGUCUAUAUUACAUGAGGAUCACCCAUGUUUAUAUGGUAUUAUAGACAGGUAGGUCGCAGAUUUUUUA [JR_SSArginiB_Sub016]	µM	0.0166
GACAUGAGGAUCACCCAUGUACCGCGAGAAGGAGCGCGGAUAAACGCAGGUAGGUCGCUCGUGGGCUUAUAUUCAAUUGUAAGCU [Usence]	µM	0.0332
AAUUCCUAACAUGAGGAUCACCCAUGUGAAGGAGCGCCGAAUAAGGCAGGUAGGUCGCACAUGGAACUGCUACGAAAGUAGAAAA [XArg-A 4 V2mod]	µM	0.0162
UAGCGAUAAUCUGAUACCAGACGUGUACUCUCCUCAGACAUGAGCAUCAGCCAUGUAUGCGUCCCUUGGCAGCAGAGAUAGGAGA [Theo B Ex t5b]	µM	0.0161
ACAUGAGGAUCACCCAUGUCAGGGCACGAUACCAGCUGAUCCGGUGGCCCUUGGCAGCGUGACGUUUGGUCCCGCGGAUCACACG [xxmullin]	µM	0.326
CUAUAUGGAAACAUAUAGAAGCGAAAGCAGCGAGGACCGGUACGGCCGCCACUCGCAGAGUGGUGGACAUGAGGAUCACCCAUGU [Design 2]	µM	0.0832
GGACUAACCAGAAGGAGCGGCACAAGCAGAAACUGCAAUCCUCCGCACGAGGAUCACCCGUGUCAGGUAGGUCGCUGGUUAGUCG [ArgBX 28]	µM	0.0568
AAGUGGCACGGAAGGAGCGAGUUUACCUAUUACAUGAGGAUCACCCAUGUGUAUAAUGGGACUCAGGUAGGUCGCCGUUGUCACU [Same State Arginine B GF 25]	µM	0.0357
ACCUGUACGAAAAGUGCAGGACACGGAAUACGAGGACCGGUACGGCCGCCACUCGGAACCUGAGGAUCACCCUGGUAAAACCGUG [TrypAS 13 #AlternativeMS2 #Zipper #StaticStem]	µM	0.0178
